Species on record: Cavia porcellus
Experiment: Antagonistic functional bioactivity against […]-receptor from guinea pig ileum(GPI).
Where a SMILES comes first, the peptide text is derived from it. [ ]: non-standard residue; d: D form. Dmt = Cc1cc(O)cc(C)c1C[C@H](N)C(=O)O; Tic = O=C(O)[C@@H]1Cc2ccccc2CN1
measurement.type: EC50 (nM)
Report the figure in nM without appending any unit label.

Input line: Given the entry Cc1cc(O)cc(C)c1C[C@H](N)C(=O)N1Cc2ccccc2C[C@H]1C(=O)NC12C[C@H]3C[C@@H](C1)C[C@@H](C2)C3 , report its measured EC50.
Output line: 36

Input line: Given the entry CNC(=O)[C@H](C)NC(=O)[C@@H]1Cc2ccccc2CN1C(=O)[C@@H](N)Cc1c(C)cc(O)cc1C (H-[Dmt]-[Tic]-Ala-NHMe) , report its measured EC50.
Output line: 290

====

pKi by entry:
Target: Delta-type opioid receptor (Rattus norvegicus)
Sequence (P33533 whole entry): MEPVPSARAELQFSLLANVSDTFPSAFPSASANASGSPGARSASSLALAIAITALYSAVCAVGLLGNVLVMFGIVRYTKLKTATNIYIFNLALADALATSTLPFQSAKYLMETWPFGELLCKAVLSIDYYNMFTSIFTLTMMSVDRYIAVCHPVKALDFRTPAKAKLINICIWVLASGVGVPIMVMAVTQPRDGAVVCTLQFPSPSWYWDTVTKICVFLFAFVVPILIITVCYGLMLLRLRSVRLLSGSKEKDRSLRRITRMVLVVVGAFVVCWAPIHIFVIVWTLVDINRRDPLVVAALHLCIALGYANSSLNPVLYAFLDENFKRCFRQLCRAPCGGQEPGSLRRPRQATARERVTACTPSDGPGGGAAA
Test: Binding affinity at Opioid receptor delta 1 from rat brain synaptosomal preparations by H-Dmt-Tic-OH displacement.
// field semantics: pKi = negative decimal log of concentration (mol/L)

Reference set, count: 4
Input line: Given the entry Cc1cc(O)cc(C)c1C[C@H](N)C(=O)N1Cc2ccccc2C[C@@H]1C(=O)NC12C[C@H]3C[C@@H](C1)C[C@@H](C2)C3 , report its measured pKi.
Output line: 7.15

Input line: Given the entry Cc1cc(O)cc(C)c1C[C@@H](C(=O)N1Cc2ccccc2C[C@@H]1C(=O)NC12C[C@H]3C[C@@H](C1)C[C@@H](C2)C3)N(C)C , report its measured pKi.
Output line: 6.92

Input line: Given the entry Cc1cc(O)cc(C)c1C[C@@H](C(=O)N1Cc2ccccc2C[C@H]1C(=O)NC12C[C@H]3C[C@@H](C1)C[C@@H](C2)C3)N(C)C , report its measured pKi.
Output line: 9.92

Input line: Given the entry Cc1cc(O)cc(C)c1C[C@H](N)C(=O)N1Cc2ccccc2C[C@H]1C(=O)NC12C[C@H]3C[C@@H](C1)C[C@@H](C2)C3 , report its measured pKi.
Output line: 9.00

Others:
Input line: Given the entry Cc1cc(O)cc(C)c1C[C@H](N)C(=O)N1Cc2ccccc2C[C@H]1C(=O)N[C@@H](C)C(=O)NC12C[C@H]3C[C@@H](C1)C[C@@H](C2)C3 , report its measured pKi.
Output line: 10.40

====

Species: Cavia porcellus
Assay: Antagonistic functional bioactivity against […]-receptor from guinea pig ileum(GPI).
Conditions: read-out: pA2 (converted)
Where a SMILES comes first, the peptide text is derived from it. [ ]: non-standard residue; d: D form. The star is where a group is joined. Dmt = Cc1cc(O)cc(C)c1C[C@H](N)C(=O)O; Tic = O=C(O)[C@@H]1Cc2ccccc2CN1; NHtBu = CC(C)(C)N*
measurement.type: Kb (nM)
Report the figure in nM without appending any unit label.

Input line: Given the entry CNC(=O)[C@@H]1Cc2ccccc2CN1C(=O)[C@@H](N)Cc1c(C)cc(O)cc1C (H-[Dmt]-[Tic]-NHMe) , report its measured Kb.
Output line: 1150

Input line: Given the entry Cc1cc(O)cc(C)c1C[C@H](N)C(=O)N1Cc2ccccc2C[C@H]1C(=O)N[C@@H](C)C(=O)NC(C)(C)C (H-[Dmt]-[Tic]-Ala-NHtBu) , report its measured Kb.
Output line: 174

Input line: Given the entry Cc1cc(O)cc(C)c1C[C@@H](C(=O)N1Cc2ccccc2C[C@H]1C(=O)NC(C)(C)C)N(C)C , report its measured Kb.
Output line: 302

// moving on: another record for Kb
Input line: Given the entry CNC(=O)[C@@H]1Cc2ccccc2CN1C(=O)[C@H](Cc1c(C)cc(O)cc1C)N(C)C , report its measured Kb.
Output line: 389
